Target: PI3-kinase subunit gamma/Phosphoinositide 3-kinase regulatory subunit 5 (Homo sapiens, UniProt P48736)
Sequence (P48736 whole entry): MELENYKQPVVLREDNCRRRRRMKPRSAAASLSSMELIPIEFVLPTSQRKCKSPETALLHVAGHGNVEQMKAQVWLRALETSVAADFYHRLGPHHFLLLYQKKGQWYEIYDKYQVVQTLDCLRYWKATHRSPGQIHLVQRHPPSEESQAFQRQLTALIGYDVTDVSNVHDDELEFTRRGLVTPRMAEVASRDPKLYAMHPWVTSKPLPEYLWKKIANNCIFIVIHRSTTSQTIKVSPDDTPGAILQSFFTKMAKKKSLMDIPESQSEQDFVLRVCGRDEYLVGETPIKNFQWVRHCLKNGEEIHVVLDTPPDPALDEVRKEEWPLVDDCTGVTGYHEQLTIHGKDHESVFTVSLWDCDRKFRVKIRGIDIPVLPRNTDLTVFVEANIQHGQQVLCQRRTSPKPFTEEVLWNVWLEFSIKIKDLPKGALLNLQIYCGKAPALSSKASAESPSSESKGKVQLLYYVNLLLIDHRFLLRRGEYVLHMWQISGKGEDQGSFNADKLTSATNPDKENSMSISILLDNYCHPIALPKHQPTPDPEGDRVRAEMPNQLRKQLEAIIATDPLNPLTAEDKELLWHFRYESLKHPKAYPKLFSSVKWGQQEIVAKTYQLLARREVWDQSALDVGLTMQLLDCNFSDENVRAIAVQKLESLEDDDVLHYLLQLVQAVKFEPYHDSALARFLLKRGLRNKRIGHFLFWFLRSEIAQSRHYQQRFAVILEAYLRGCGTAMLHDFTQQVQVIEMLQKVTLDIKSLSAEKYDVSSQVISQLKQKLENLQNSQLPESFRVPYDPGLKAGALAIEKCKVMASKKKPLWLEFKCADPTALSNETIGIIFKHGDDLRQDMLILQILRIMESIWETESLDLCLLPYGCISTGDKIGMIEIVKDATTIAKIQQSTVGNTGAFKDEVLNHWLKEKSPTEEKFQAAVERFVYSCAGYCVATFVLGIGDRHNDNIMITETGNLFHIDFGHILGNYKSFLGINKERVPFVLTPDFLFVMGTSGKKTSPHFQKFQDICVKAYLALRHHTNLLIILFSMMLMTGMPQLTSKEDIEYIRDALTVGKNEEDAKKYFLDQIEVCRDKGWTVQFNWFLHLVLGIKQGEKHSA
Sequence (Q8WYR1 whole entry, further chain): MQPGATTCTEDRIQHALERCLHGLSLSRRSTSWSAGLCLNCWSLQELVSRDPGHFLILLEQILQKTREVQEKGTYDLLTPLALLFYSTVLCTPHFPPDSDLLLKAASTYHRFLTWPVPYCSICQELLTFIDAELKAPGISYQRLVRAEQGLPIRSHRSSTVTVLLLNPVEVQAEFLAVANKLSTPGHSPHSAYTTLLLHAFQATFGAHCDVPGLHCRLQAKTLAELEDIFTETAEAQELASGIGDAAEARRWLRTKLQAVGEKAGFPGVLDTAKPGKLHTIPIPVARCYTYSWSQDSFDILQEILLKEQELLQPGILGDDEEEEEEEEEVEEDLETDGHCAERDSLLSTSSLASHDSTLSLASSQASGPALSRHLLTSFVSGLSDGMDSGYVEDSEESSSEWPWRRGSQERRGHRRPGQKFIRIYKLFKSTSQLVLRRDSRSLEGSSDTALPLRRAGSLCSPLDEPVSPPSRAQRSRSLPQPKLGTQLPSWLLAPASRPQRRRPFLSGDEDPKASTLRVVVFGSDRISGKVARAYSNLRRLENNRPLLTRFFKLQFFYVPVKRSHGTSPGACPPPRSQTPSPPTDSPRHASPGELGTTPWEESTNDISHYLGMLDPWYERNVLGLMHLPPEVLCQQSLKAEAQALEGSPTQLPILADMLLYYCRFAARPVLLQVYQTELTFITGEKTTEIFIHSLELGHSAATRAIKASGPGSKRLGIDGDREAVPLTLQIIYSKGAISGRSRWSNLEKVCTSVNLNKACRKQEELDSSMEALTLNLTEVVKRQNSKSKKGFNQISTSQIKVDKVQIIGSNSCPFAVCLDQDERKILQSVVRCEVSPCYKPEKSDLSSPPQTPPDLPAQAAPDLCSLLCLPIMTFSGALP
Experiment: Inhibition of PI3K p110gamma/p101 (unknown origin) using PIP2/ATP as substrate after 1 hr by kinase glo luminescent assay
TEST READOUT: pIC50
Give bare numbers, as −log10 of the molar value.

COMPOUND: CS(=O)(=O)N1CCN(C(=O)c2ccc(Nc3nc(-c4cnc(N)cc4C(F)(F)F)cc(N4CCOCC4)n3)cc2)CC1
TEST READOUT: pIC50
ENDPOINT RESULT: 7.10

Field: next compound
Prompt: Given Nc1cc(C(F)(F)F)c(-c2cc(N3CCOCC3)nc(N3C[C@@H]4OCCO[C@H]4C3)n2)cn1 (racemic) , state its recorded pIC50.
Completion: 6.80
